System Name: BRD9 bromodomain (Flag-BRD9 P133-K239; Swiss Prot Q9H8M2) (Homo sapiens)
Construct: His-Flag-BRD9 (P133-K239); Swiss Prot Q9H8M2; His6 with TEV site (mgsshhhhhhenlyfq/) (N, cleaved yes)
Sequence (Q9H8M2 133-239): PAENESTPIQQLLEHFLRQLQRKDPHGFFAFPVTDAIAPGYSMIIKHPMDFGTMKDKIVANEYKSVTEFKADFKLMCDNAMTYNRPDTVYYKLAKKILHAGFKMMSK
Protocol: BRD9 Bromodomain TR-FRET Competition Binding Assay
Condition Details: competition with biotinylated BRD9 ligand; 90 minutes at room temperature
Test Readout: IC50

Entry COc1cc(-c2cn(C)c(=O)c3cnc(N(C)C)cc23)cc(OC)c1CN1CC(C(=O)NCCCCCOc2cccc3c2C(=O)N(C2CCC(=O)NC2=O)C3=O)C1 (centres unmarked) [Compound D1] needs its IC50 filled in; supply it.
< 10 nM

Entry CNc1cc2c(=O)n(C)cc(-c3cc(OC)c(CN4CCN(C(=O)CCCOc5cccc6c5C(=O)N(C5CCC(=O)NC5=O)C6=O)CC4)c(OC)c3)c2cn1 (centres unmarked) [Compound D17, formic acid] needs its IC50 filled in; supply it.
≥ 10 nM

Entry COc1cc(-c2cn(C)c(=O)c3cnc(N(C)CCOCCOCCNc4cccc5c4C(=O)N(C4CCC(=O)NC4=O)C5=O)cc23)cc(OC)c1CN(C)C (centres unmarked) [Compound D31] needs its IC50 filled in; supply it.
≥ 10 nM

Entry COc1cc(-c2cn(C)c(=O)c3cnc(N(C)C)cc23)cc(OC)c1CN1CCC(CCN2CCN(c3ccc4c(c3)C(=O)N(C3CCC(=O)NC3=O)C4=O)CC2)CC1 (centres unmarked) [Compound D20, formic acid] needs its IC50 filled in; supply it.
< 10 nM

Entry CNc1cc2c(=O)n(C)cc(-c3cc(OC)c(CN4CCN(C(=O)COc5cccc6c5C(=O)N(C5CCC(=O)NC5=O)C6=O)CC4)c(OC)c3)c2cn1 (centres unmarked) [Compound D29] needs its IC50 filled in; supply it.
< 10 nM

Entry COc1cc(-c2cn(C)c(=O)c3cnc(NC(=O)CCOCCOCCNc4ccc5c(c4)C(=O)N(C4CCC(=O)NC4=O)C5=O)cc23)cc(OC)c1CN(C)C (centres unmarked) [Compound D14, formic acid] needs its IC50 filled in; supply it.
≥ 10 nM

Entry COc1cc(-c2cn(C)c(=O)c3cnc(NCCOCCOCCNc4cccc5c4C(=O)N(C4CCC(=O)NC4=O)C5=O)cc23)cc(OC)c1CN(C)C (centres unmarked) [Compound D10, formic acid] needs its IC50 filled in; supply it.
≥ 10 nM

Entry COc1cc(-c2cn(C)c(=O)c3cnc(N(C)C)cc23)cc(OC)c1CN(C)C [Compound B2] needs its IC50 filled in; supply it.
< 10 nM

====

System Name: Nanoluciferase-BRD9 fusion protein (3×FLAG-NLuc-BRD9) in SYO-1 cells (Homo sapiens, UniProt Q9H8M2)
Construct: expressed in transfected cells; host or cells: SYO-1
Protocol: SYO1 BRD9 NanoLuc Degradation Assay
Type: cell-based
Condition Details: Table 6C; SYO-1 cells expressing 3×FLAG-NLuc-BRD9, 6 hours incubation, 1 μM top dose; read-out: SYO1 BRD9-NanoLuc degradation IC50
Test Readout: DC50

Entry COc1cc(-c2cn(C)c(=O)c3cnc(N4CC(C)(OC)C4)cc23)cc(OC)c1CN1CC(CN2CCC3(CC2)CN(c2ccc4c(c2)C(=O)N(C2CCC(=O)NC2=O)C4)C3)C1 (stereo not drawn) needs its DC50 filled in; supply it.
< 10 nM

Entry COc1cc(-c2cn(C)c(=O)c3cnc(N4CCC4)cc23)cc(OC)c1CN(C)c1ccc2c(c1)CN(C1CCC(=O)NC1=O)C2=O (stereo not drawn) needs its DC50 filled in; supply it.
< 10 nM

Entry COc1cc(-c2cn(C)c(=O)c3cnc(C4CC4)cc23)cc(OC)c1CN1CCC2(CC1)CN(c1ccc3c(c1)CN(C1CCC(=O)NC1=O)C3=O)C2 (stereo not drawn) needs its DC50 filled in; supply it.
< 10 nM
